- System: breast cancer (MCF-7) cell line
- assay-notes: MTT in vitro antiproliferation assay, MCF-7
- Format: cell-based
- condition-description: Homo sapiens, MCF7, 24 h, read-out: IC50 ± SD MCF-7
attribute-measured: IC50 (µM)

A: CCCSc1ccc2nc(NC(=O)OC)[nH]c2c1
B: COC(=O)Nc1nc2ccc(C(=O)c3cccs3)cc2[nH]1
C: CCCSc1ccc2[nH]c(N[C@H]3O[C@@H](CO)[C@H](O)[C@@H](O)[C@@H]3O)nc2c1 [Al–G, albendazole amine glucose conjugate]
Sort the compounds on IC50; start with the lowest figure. I'd appreciate it if you listed the labels in the requested order.
B, A, C
(B: 7.41 µM, A: 59 µM, C: 131 µM)
